Values were extracted from ChEMBL document CHEMBL1201862.

Attribute: GI50
Tested on: OVCAR-8
Method Notes: NCI tumour cell line growth inhibition, 48 h
Calls of active or inactive are those of the source. Cut-off read from the data, not from the text of the source: active = GI50 up to about 1.1 µM and inactive = higher.
Readout Label: GI50

Compound: S=C(NCc1ccccc1)N/N=C/c1ccccn1
Target: OVCAR-8
Recorded Result: 1.15 µM (inactive)
//
Compound: CCC(CCCC[C@@H]1CC[C@H]2CC(=O)C[C@@H]12)OC (some centres not stated)
Target: OVCAR-8
Recorded Result: > 100 µM (inactive)
//
Compound: CCn1c(-c2ccc(OC(C)=O)cc2)c(C)c2cc(OC(C)=O)ccc21
Target: OVCAR-8
Recorded Result: 20 µM (inactive)
//
Compound: COc1ccc(C2=C(Cl)c3cc(OC)c(OC)cc3C2Cl)cc1OC (configuration not stated)
Target: OVCAR-8
Recorded Result: 15.4 µM (inactive)
//
Compound: c1ccc2sc(C3(N4CCC5(CC4)OCCO5)CCCCC3)cc2c1
Target: OVCAR-8
Recorded Result: > 100 µM (inactive)
//
Compound: C#CCCCOc1ncccn1
Target: OVCAR-8
Recorded Result: > 100 µM (inactive)
//
Compound: O=c1cc(-c2ccccc2)[nH]c2c(F)ccc(F)c12
Target: OVCAR-8
Recorded Result: 82 µM (inactive)
//
Compound: N#CCN1CCCCCc2ccccc21
Target: OVCAR-8
Recorded Result: > 100 µM (inactive)
//
Compound: O=S(=O)(/C=C/CS(=O)(=O)c1ccccc1)c1ccccc1
Target: OVCAR-8
Recorded Result: 16.9 µM (inactive)
//
Compound: O=C1CCSC2=C1SCc1sccc12
Target: OVCAR-8
Recorded Result: > 100 µM (inactive)
//
Compound: Cc1ccc(C(=O)Nc2ccc(CP(=O)(O)O)cc2CP(=O)(O)O)cc1NC(=O)c1cccc(NC(=O)Nc2cccc(C(=O)Nc3cc(C(=O)Nc4ccc(CP(=O)(O)O)cc4CP(=O)(O)O)ccc3C)c2)c1
Target: OVCAR-8
Recorded Result: > 100 µM (inactive)
//
Compound: CC(C)=CCC/C(C)=C/CC/C(C)=C/C(O)c1ccccc1 (configuration not stated)
Target: OVCAR-8
Recorded Result: 20.6 µM (inactive)
//
Compound: CC(C)(O)/C=C\P(=O)(O)O
Target: OVCAR-8
Recorded Result: > 100 µM (inactive)
//
Compound: O=[N+]([O-])CCc1cccc([N+](=O)[O-])c1
Target: OVCAR-8
Recorded Result: > 100 µM (inactive)
//
Compound: CN1C[C@@H]2CCCN2P1Oc1cccc2cccnc12 (some centres not stated)
Target: OVCAR-8
Recorded Result: 42.6 µM (inactive)
//
Compound: O=c1c2c3c(sc2nc2n1N=CN(c1ccc(F)cc1)C2)CCCC3
Target: OVCAR-8
Recorded Result: > 100 µM (inactive)
//
Compound: COc1ccc(CC2c3cc4c(cc3CCN2C)OCO4)c(C=O)c1OC (configuration not stated)
Target: OVCAR-8
Recorded Result: > 100 µM (inactive)

----------
System: LOX IMVI
Method Notes: NCI tumour cell line growth inhibition, 48 h
The source made the active and inactive calls. Rule as the data show it: active = GI50 up to about 1.1 µM and inactive = higher. Starred links: 1 amine or outer side, 2 acyl side, 3 side chain; linkers in the order of their positions; H or OH if unused. Non-standard residues stand in square brackets, D forms with d. Residues, ends and D or L forms follow the SMILES beside them. X41 = CSCCCC(N[*:1])C(=O)[*:2]
Labels: 1 (active), 0 (inactive)

Molecule: C[N+](C)(C)CC1CCC(C[N+](C)(C)C)C1=NO (stereo unspecified)
Target: LOX IMVI
Group Label: 0

Molecule: Cc1cc(C)nc(NC(=O)c2ccc(Br)s2)c1
Target: LOX IMVI
Group Label: 0

Molecule: C=CCOc1ccc(C2(O)c3ccccc3C3=NCCCN32)cc1 (stereo unspecified)
Target: LOX IMVI
Group Label: 0

Molecule: CN(CCc1ccc(N)cc1)[C@H]1CCCC[C@H]1N1CCCC1
Target: LOX IMVI
Group Label: 0

Molecule: CC(C)(O)/C=C\P(=O)(O)O
Target: LOX IMVI
Group Label: 0

Molecule: O=C1CCCC/C1=C/C=C/c1ccccc1
Target: LOX IMVI
Group Label: 0

Molecule: CSCCCC(NC(=O)CNC(=O)C1CCCN1C(=O)C(Cc1ccc(O)cc1)NC(=O)C(Cc1ccccc1)NC(=O)C(CCCNC(=N)N)NC(=O)C(CC(=O)O)NC(=O)C1CCCN1C(=O)C(CC(=O)O)NC(=O)C1CCCN1C(=O)C1CCCN1C(=O)CN)C(N)=O (stereo unspecified) (H-GPPDPDRFYPG[X41]-NH2; configuration not given here)
Target: LOX IMVI
Group Label: 0

Molecule: COc1ccc2c(c1)C(CCN)C(=O)N2 (stereo unspecified)
Target: LOX IMVI
Group Label: 0

Molecule: CC(N)Cc1ccc(Cl)c(Cl)c1 (stereo unspecified)
Target: LOX IMVI
Group Label: 0

Molecule: C1CCN(CCC2CCCCN2)CC1 (stereo unspecified)
Target: LOX IMVI
Group Label: 0

Molecule: CCOC(=O)CC[C@H](N)C(=O)N[C@@H](Cc1ccc(N(CCCl)CCCl)cc1)C(=O)OCC
Target: LOX IMVI
Group Label: 1

----------
Test system: Malme-3M
Method Notes: NCI tumour cell line growth inhibition, 48 h
Calls of active or inactive are those of the source. No stated cut-off is given here; in the data, active = GI50 up to about 1.1 µM and inactive = higher.

Compound: CC[As](CC)SCC1OC(OC(C)=O)C(OC(C)=O)C(OC(C)=O)C1OC(C)=O (configuration not stated)
GI50: 3.53 µM (inactive)

Compound: N#CC(C#N)=C1CCC2C(=C(C#N)C#N)CCC12 (configuration not stated)
GI50: > 100 µM (inactive)

Compound: O=C(O)C(CSC(c1ccccc1)(c1ccccc1)c1ccccc1)/N=C/c1cccs1 (configuration not stated)
GI50: 3.6 µM (inactive)

Compound: Cn1c2ccccc2n2c3ncccc3c(=S)c(C#N)c12
GI50: > 100 µM (inactive)

Compound: C/C(CC(=O)CCC(=O)Nc1cccc(C(F)(F)F)c1)=N\NC(=O)NN
GI50: > 100 µM (inactive)

Compound: CCOC(=O)CC1C(O)C(=O)N(C)C1c1ccccc1 (configuration not stated)
GI50: > 100 µM (inactive)

Compound: COc1ccc(-n2c3c(c4c(CN(C)C)c(O)ccc42)C(=O)c2ccccc2C3=O)cc1
GI50: 11.4 µM (inactive)

Compound: CN(CCc1ccc(Cl)c(Cl)c1)CCN(C)CCN1CCCC1
GI50: 5.02 µM (inactive)

Compound: CC(C)(C)C(=O)N1C(C(=O)O)Cc2ccccc2[C@@H]1Cc1ccccc1 (some centres not stated)
GI50: > 100 µM (inactive)

Compound: NC1=NC(c2ccc(Cl)cc2)N(c2ccc(S(=O)(=O)Nc3ncccn3)cc2)C(N)=N1 (configuration not stated)
GI50: > 100 µM (inactive)

Compound: C1=CCN(c2ccccc2)CC1
GI50: 22.6 µM (inactive)

Compound: COc1ccc(C2=NOP(c3ccccc3)(c3ccccc3)(c3ccccc3)C2)cc1
GI50: 21.9 µM (inactive)

Compound: COc1cc(C2c3cc4c(cc3OC(NNS(=O)(=O)c3ccc(C)cc3)C2C)OCO4)cc(OC)c1OC (configuration not stated)
GI50: 3.04 µM (inactive)

Compound: COC(=O)C1(NC(=O)C(CC(=O)OCc2ccccc2)NC(=O)OCc2ccccc2)CCCCCC1 (configuration not stated)
GI50: 24.1 µM (inactive)

Compound: C=CN1C(=O)OC[C@@H]1c1ccccc1
GI50: > 100 µM (inactive)

Compound: CC1SC2=NC3=C(c4ccccc4C3=O)C(c3ccccc3Cl)N2C1=O (configuration not stated)
GI50: > 100 µM (inactive)

Compound: N#Cc1c(N2CCCC2)ncn(-c2ccccc2)c1=S
GI50: > 100 µM (inactive)

----------
Recorded GI50 values for a group of molecules are listed next.
Test system: 786-0
Method Notes: NCI tumour cell line growth inhibition, 48 h
Active and inactive are the calls of the source. Cut-off read from the data, not from the text of the source: active = GI50 up to about 1.1 µM and inactive = higher.
Readout Label: GI50

Molecule: O=C(O)C(SC(=S)c1ccc(C(=S)SC(C(=O)O)c2ccccc2)cc1)c1ccccc1 (stereo not drawn)
Recorded Result: 40.9 µM (inactive)

Molecule: O=C(NCCCN1CCN(CCCNC(=O)c2cnc3ccccc3n2)CC1)c1cnc2ccccc2n1
Recorded Result: > 100 µM (inactive)

Molecule: COC(=O)c1c2c(c(-c3ccccc3)c3c1-c1nc(Cl)ccc1CC3)CCc1ccc(Cl)nc1-2
Recorded Result: > 100 µM (inactive)

----------
System: NCI-H460
Method Notes: NCI tumour cell line growth inhibition, 48 h
Calls of active or inactive are those of the source. Cut-off read from the data, not from the text of the source: active = GI50 up to about 1.1 µM and inactive = higher.

Molecule: O=C1CCCc2c(O)ccc(O)c21
GI50: > 100 µM (inactive)
--
Molecule: COc1ccc(/C=C/C(=O)c2sc(NC(=S)NC(=O)c3ccc(Cl)cc3)nc2C)cc1OC
GI50: 84.7 µM (inactive)
--
Molecule: COc1ccc(C2=C(Cl)c3cc(OC)c(OC)cc3C2Cl)cc1OC (configuration not stated)
GI50: 16.5 µM (inactive)
--
Molecule: O=C1N/C(=C\[N+](=O)[O-])c2ccccc21
GI50: > 100 µM (inactive)
--
Molecule: O=C(O)C(CSC(c1ccccc1)(c1ccccc1)c1ccccc1)/N=C/c1cccs1 (configuration not stated)
GI50: 3.16 µM (inactive)
--
Molecule: O=[N+]([O-])CC(SCc1ccccc1)c1ccc2c(c1)OCO2 (configuration not stated)
GI50: 14.8 µM (inactive)
--
Molecule: Cc1c(C#N)c2ccccc2c2nc3ccccc3n12
GI50: 27.7 µM (inactive)
